Experiment: Inhibition of interleukin-23 binding to rat interleukin-23 receptor incubated for 2 hrs by competitive binding ELISA
I'd be grateful if you could share measured IC50 for these entries.

{"structure smiles string": "CC(=O)NCCCC[C@H](NC(=O)[C@](C)(CCCCN)NC(=O)[C@H](Cc1ccc2ccccc2c1)NC(=O)[C@H](Cc1ccc(OCCN)cc1)NC(=O)[C@@H](NC(=O)[C@H](CCC(N)=O)NC(=O)[C@H](Cc1c[nH]c2ccccc12)NC(=O)[C@@H](NC(=O)[C@H](CCC(N)=O)NC(=O)[C@@H](NC(C)=O)C(C)(C)S)[C@@H](C)O)C(C)(C)S)C(=O)N[C@@H](CC(N)=O)C(=O)NCC(N)=O", "IC50": "25 to 100 nM"}

For every listed record, write down its IC50.
1. CC(=O)NCCCC[C@H](NC(=O)[C@](C)(CCCN)NC(=O)[C@H](Cc1ccc2ccccc2c1)NC(=O)[C@H](Cc1ccc2ccccc2c1)NC(=O)[C@@H]1CSCC[C@H](NC(C)=O)C(=O)N[C@@H](CCC(N)=O)C(=O)N[C@@H]([C@@H](C)O)C(=O)N[C@@H](Cc2c[nH]c3ccccc23)C(=O)N[C@@H](CCC(N)=O)C(=O)N1)C(=O)N[C@@H](CC(N)=O)C(=O)NCC(N)=O
2. CC(=O)N[C@@H](CS)C(=O)N[C@@H](CCCNC(=N)N)C(=O)N[C@H](C(=O)N[C@@H](Cc1c[nH]c2ccccc12)C(=O)N[C@@H](CCC(N)=O)C(=O)N[C@@H](CS)C(=O)N[C@@H](Cc1ccc(O)cc1)C(=O)N[C@@H](Cc1c[nH]c2ccccc12)C(=O)N[C@@H](CCCNC(=N)N)C(=O)N[C@@H](CCC(=O)O)C(=O)N[C@@H](CC(N)=O)C(=O)NCC(=O)N[C@@H](C)C(=O)N[C@H](CCCCN)C(N)=O)[C@@H](C)O

1: 100 to 1000 nM; 2: 86 nM

* * *

Experiment: Half life in DTT at 50 uM up up to 120 mins by reverse phase HPLC and UV detection based assay
Type: physicochemical
Where a SMILES comes first, the peptide text is derived from it.
readout: half-life at 50 µM

{"compound": "CC(=O)N[C@@H](CS)C(=O)N[C@@H](C)C(=O)N[C@@H](CC(=O)O)C(=O)N[C@@H](Cc1c[nH]c2ccccc12)C(=O)N[C@H](C(=O)N[C@@H](Cc1c[nH]c2ccccc12)C(=O)N[C@@H](CS)C(=O)N[C@@H](Cc1ccc(O)cc1)C(=O)N[C@@H](Cc1c[nH]c2ccccc12)C(=O)N[C@@H](Cc1cnc[nH]1)C(=O)N[C@H](C(=O)N[C@@H](Cc1ccccc1)C(=O)NCC(=O)N[C@@H](C)C(=O)N1CC[C@H]1C(=O)N[C@H](CCCCN)C(N)=O)[C@@H](C)O)C(C)C", "half-life at 50 µM": "0.167 to 2 h"}
{"compound": "CC(=O)N[C@H](C(=O)N[C@@H](CCC(N)=O)C(=O)N[C@H](C(=O)N[C@@H](Cc1c[nH]c2ccccc12)C(=O)N[C@@H](CCC(N)=O)C(=O)N[C@H](C(=O)N[C@@H](Cc1ccc(O)cc1)C(=O)N[C@@H](Cc1c[nH]c2ccccc12)C(=O)N[C@@](C)(CC(C)C)C(=O)N[C@@H](CCC(=O)O)C(=O)N[C@@H](CC(N)=O)C(=O)NCC(N)=O)C(C)(C)S)[C@@H](C)O)C(C)(C)S", "half-life at 50 µM": "> 2 h"}
{"compound": "CC(=O)N[C@H](C(=O)N[C@@H](CCC(N)=O)C(=O)N[C@H](C(=O)N[C@@H](Cc1c[nH]c2ccccc12)C(=O)N[C@@H](CCC(N)=O)C(=O)N[C@H](C(=O)N[C@@H](Cc1ccc(O)cc1)C(=O)N[C@@H](Cc1c[nH]c2ccccc12)C(=O)N[C@@H](CCC(C)C)C(=O)N[C@@H](CCC(=O)O)C(=O)N[C@@H](CC(N)=O)C(=O)NCC(N)=O)C(C)(C)S)[C@@H](C)O)C(C)(C)S", "half-life at 50 µM": "> 2 h"}
{"compound": "CC(=O)N[C@H]1CCSC[C@@H](C(=O)N[C@@H](Cc2ccc(O)cc2)C(=O)N[C@@H](Cc2c[nH]c3ccccc23)C(=O)N[C@@H](CCCNC(=N)N)C(=O)N[C@@H](CCCCN)C(=O)N[C@@H](Cc2ccccc2)C(=O)NCC(=O)NCCOCC(=O)N[C@H](CCCCN)C(N)=O)NC(=O)[C@H](CCC(N)=O)NC(=O)[C@H](Cc2c[nH]c3ccccc23)NC(=O)[C@H]([C@@H](C)O)NC(=O)[C@H](CCCNC(=N)N)NC1=O", "half-life at 50 µM": "> 2 h"}
{"compound": "CC(=O)N[C@H]1CCSC[C@@H](C(=O)N[C@@H](Cc2ccc(OCCN)cc2)C(=O)N[C@@H](Cc2c[nH]c3ccccc23)C(=O)N[C@@](C)(CCCCN)C(=O)N[C@@H](CCC(=O)O)C(=O)N[C@@H](CC(N)=O)C(=O)NCC(N)=O)NC(=O)[C@H](CCC(N)=O)NC(=O)[C@H](Cc2c[nH]c3ccccc23)NC(=O)[C@H]([C@@H](C)O)NC(=O)[C@H](CCC(N)=O)NC1=O", "half-life at 50 µM": "> 2 h"}

For every listed record, write down its half-life at 50 µM.
1. COc1ccc(C[C@H](NC(=O)[C@@H](NC(=O)[C@H](CCC(N)=O)NC(=O)[C@H](Cc2c[nH]c3ccccc23)NC(=O)[C@@H](NC(=O)[C@H](CCC(N)=O)NC(=O)[C@@H](NC(C)=O)C(C)(C)S)[C@@H](C)O)C(C)(C)S)C(=O)N[C@@H](Cc2ccc3ccccc3c2)C(=O)N[C@@](C)(CCCCN)C(=O)N[C@@H](CCC(=O)O)C(=O)N[C@@H](CC(N)=O)C(=O)NCC(N)=O)cc1
2. CC(=O)N[C@H]1CCSC[C@@H](C(=O)N[C@@H](Cc2ccc(OCCN)cc2)C(=O)N[C@@H](Cc2ccc3ccccc3c2)C(=O)NC2(C(=O)N[C@@H](CCC(=O)O)C(=O)N[C@@H](CC(N)=O)C(=O)N[C@@H](CC(N)=O)C(N)=O)CCOCC2)NC(=O)[C@H](CCC(N)=O)NC(=O)[C@H](Cc2c[nH]c3ccccc23)NC(=O)[C@H]([C@@H](C)O)NC(=O)[C@H](CCC(N)=O)NC1=O
3. CC(=O)N[C@@H](CS)C(=O)N[C@@H](CCC(N)=O)C(=O)N[C@H](C(=O)N[C@@H](Cc1c[nH]c2ccccc12)C(=O)N[C@@H](CCC(N)=O)C(=O)N[C@@H](CS)C(=O)N[C@@H](Cc1ccc(O)cc1)C(=O)N[C@@H](Cc1c[nH]c2ccccc12)C(=O)N[C@@H](CCC(C)C)C(=O)N[C@@H](CCC(=O)O)C(=O)N[C@@H](CC(N)=O)C(=O)NCC(N)=O)[C@@H](C)O

["> 2 h", "> 2 h", "0.167 to 2 h"]

Kindly note the recorded half-life at 50 µM for CC(=O)N[C@@H](CS)C(=O)N[C@@H](CCCNC(=N)N)C(=O)N[C@H](C(=O)N[C@@H](Cc1c[nH]c2ccccc12)C(=O)N[C@@H](CCC(=O)O)C(=O)N[C@@H](CS)C(=O)N[C@@H](Cc1ccc(O)cc1)C(=O)N[C@@H](Cc1c[nH]c2ccccc12)C(=O)N[C@@H](Cc1cnc[nH]1)C(=O)N[C@@H](CCC(=O)O)C(=O)N[C@@H](Cc1ccccc1)C(=O)NCC(N)=O)[C@@H](C)O (Ac-CRTWECYWHEFG-NH2) , which is < 0.167 h

* * *

Assay: Half life in simulated intestinal fluid at 20 uM by LC-MS/MS analysis
Assay type: ADME
I'd be grateful if you could share measured half-life at 20 µM for these entries.

{"structure smiles string": "CC(=O)N[C@H]1CCSC[C@H](C(=O)N[C@@H](Cc2ccc(O)cc2)C(=O)N[C@@H](Cc2c[nH]c3ccccc23)C(=O)N[C@@H](CCC(C)C)C(=O)N[C@@H](CCC(=O)O)C(=O)N[C@@H](CC(N)=O)C(=O)NCC(N)=O)NC(=O)[C@H](CCC(N)=O)NC(=O)[C@H](Cc2c[nH]c3ccccc23)NC(=O)[C@H]([C@@H](C)O)NC(=O)[C@H](CCC(N)=O)NC1=O", "half-life at 20 µM": "1 to 2 h"}

Please look at the following compound next.
Kindly note the recorded half-life at 20 µM for CC(=O)NCCCC[C@](C)(NC(=O)[C@H](Cc1ccc2ccccc2c1)NC(=O)[C@H](Cc1ccc(OCCNC(C)=O)cc1)NC(=O)[C@@H](NC(=O)[C@H](CCC(N)=O)NC(=O)[C@H](Cc1c[nH]c2ccccc12)NC(=O)[C@@H](NC(=O)[C@H](CCC(N)=O)NC(=O)[C@@H](NC(C)=O)C(C)(C)S)[C@@H](C)O)C(C)(C)S)C(=O)N[C@@H](CCC(=O)O)C(=O)N[C@@H](CC(N)=O)C(=O)NCC(N)=O , which is 3 to 6 h
